Assay: E. coli PNP enzyme activity with substrate MeP-dR
Conditions: substrate MeP-dR; percent of wild-type activity

MOLECULE	Percent of Control Activity, MeP-dR (%)
M65Q (protein, UniProt P0ABP8 2-239, looked up, variant M65Q) Purine nucleoside …: ATPHINAEMGDFADVVLMPGDPLRAKYIAETFLEDAREVNNVRGMLGFTGTYKGRKISVMGHGQGIPSCSIYTKELITDFGVKKIIRVGSCGAVLPHVKLRDVVIGMGACTDSKVNRIRFKDHDFAAIADFDMVRNAVDAAKALGIDARVGNLFSADLFYSPDGEMFDVMEKYGILGVEMEAAGIYGVAAEFGAKALTICTVSDHIRTHEQTTAAERQTTFNDMIKIALESVLLGDKE	0.6
M65V (protein, listed as Escherichia coli) MATPHINAEMGDFADVVLMPGDPLRAKYIAETFLEDAREVNNVRGMLGFTGTYKGRKISVMGHGVGIPSCSIYTKELITDFGVKKIIRVGSCGAVLPHVKLRDVVIGMGACTDSKVNRIRFKDHDFAAIADFDMVRNAVDAAKALGIDARVGNLFSADLFYSPDGEMFDVMEKYGILGVEMEAAGIYGVAAEFGAKALTICTVSDHIRTHEQTTAAERQTTFNDMIKIALESVLLGDKE	42
E180S (protein, UniProt P0ABP8 2-239, looked up, variant E180S) Purine nucleoside …: ATPHINAEMGDFADVVLMPGDPLRAKYIAETFLEDAREVNNVRGMLGFTGTYKGRKISVMGHGMGIPSCSIYTKELITDFGVKKIIRVGSCGAVLPHVKLRDVVIGMGACTDSKVNRIRFKDHDFAAIADFDMVRNAVDAAKALGIDARVGNLFSADLFYSPDGEMFDVMEKYGILGVSMEAAGIYGVAAEFGAKALTICTVSDHIRTHEQTTAAERQTTFNDMIKIALESVLLGDKE	0.5
M181A (protein, UniProt P0ABP8 2-239, looked up, variant M181A) Purine nucleoside …: ATPHINAEMGDFADVVLMPGDPLRAKYIAETFLEDAREVNNVRGMLGFTGTYKGRKISVMGHGMGIPSCSIYTKELITDFGVKKIIRVGSCGAVLPHVKLRDVVIGMGACTDSKVNRIRFKDHDFAAIADFDMVRNAVDAAKALGIDARVGNLFSADLFYSPDGEMFDVMEKYGILGVEAEAAGIYGVAAEFGAKALTICTVSDHIRTHEQTTAAERQTTFNDMIKIALESVLLGDKE	0.04
H5N (protein, UniProt P0ABP8 2-239, looked up, variant H5N) Purine nucleoside …: ATPNINAEMGDFADVVLMPGDPLRAKYIAETFLEDAREVNNVRGMLGFTGTYKGRKISVMGHGMGIPSCSIYTKELITDFGVKKIIRVGSCGAVLPHVKLRDVVIGMGACTDSKVNRIRFKDHDFAAIADFDMVRNAVDAAKALGIDARVGNLFSADLFYSPDGEMFDVMEKYGILGVEMEAAGIYGVAAEFGAKALTICTVSDHIRTHEQTTAAERQTTFNDMIKIALESVLLGDKE	0.08
E182A (protein, UniProt P0ABP8 2-239, looked up, variant E182A) Purine nucleoside …: ATPHINAEMGDFADVVLMPGDPLRAKYIAETFLEDAREVNNVRGMLGFTGTYKGRKISVMGHGMGIPSCSIYTKELITDFGVKKIIRVGSCGAVLPHVKLRDVVIGMGACTDSKVNRIRFKDHDFAAIADFDMVRNAVDAAKALGIDARVGNLFSADLFYSPDGEMFDVMEKYGILGVEMAAAGIYGVAAEFGAKALTICTVSDHIRTHEQTTAAERQTTFNDMIKIALESVLLGDKE	0.5
E180N (protein, UniProt P0ABP8 2-239, looked up, variant E180N) Purine nucleoside …: ATPHINAEMGDFADVVLMPGDPLRAKYIAETFLEDAREVNNVRGMLGFTGTYKGRKISVMGHGMGIPSCSIYTKELITDFGVKKIIRVGSCGAVLPHVKLRDVVIGMGACTDSKVNRIRFKDHDFAAIADFDMVRNAVDAAKALGIDARVGNLFSADLFYSPDGEMFDVMEKYGILGVNMEAAGIYGVAAEFGAKALTICTVSDHIRTHEQTTAAERQTTFNDMIKIALESVLLGDKE	0.2
M65I (protein, UniProt P0ABP8 2-239, looked up, variant M65I) Purine nucleoside …: ATPHINAEMGDFADVVLMPGDPLRAKYIAETFLEDAREVNNVRGMLGFTGTYKGRKISVMGHGIGIPSCSIYTKELITDFGVKKIIRVGSCGAVLPHVKLRDVVIGMGACTDSKVNRIRFKDHDFAAIADFDMVRNAVDAAKALGIDARVGNLFSADLFYSPDGEMFDVMEKYGILGVEMEAAGIYGVAAEFGAKALTICTVSDHIRTHEQTTAAERQTTFNDMIKIALESVLLGDKE	0.02
E182V (protein, UniProt P0ABP8 2-239, looked up, variant E182V) Purine nucleoside …: ATPHINAEMGDFADVVLMPGDPLRAKYIAETFLEDAREVNNVRGMLGFTGTYKGRKISVMGHGMGIPSCSIYTKELITDFGVKKIIRVGSCGAVLPHVKLRDVVIGMGACTDSKVNRIRFKDHDFAAIADFDMVRNAVDAAKALGIDARVGNLFSADLFYSPDGEMFDVMEKYGILGVEMVAAGIYGVAAEFGAKALTICTVSDHIRTHEQTTAAERQTTFNDMIKIALESVLLGDKE	0.3
M65A (protein, UniProt P0ABP8 2-239, looked up, variant M65A) Purine nucleoside …: ATPHINAEMGDFADVVLMPGDPLRAKYIAETFLEDAREVNNVRGMLGFTGTYKGRKISVMGHGAGIPSCSIYTKELITDFGVKKIIRVGSCGAVLPHVKLRDVVIGMGACTDSKVNRIRFKDHDFAAIADFDMVRNAVDAAKALGIDARVGNLFSADLFYSPDGEMFDVMEKYGILGVEMEAAGIYGVAAEFGAKALTICTVSDHIRTHEQTTAAERQTTFNDMIKIALESVLLGDKE	1.5
